The entries below come with measured melting point values attached.

molecule: CC(C)c1nc(CN2C(=O)C3(COc4cc5c(cc43)OCO5)c3c(Cl)cccc32)cs1 (centres unmarked)
melting point: 147 to 148 °C
--
molecule: O=C1N(Cc2cccnc2)c2ccccc2C12COc1cc3c(cc12)OCCO3 (centres unmarked)
melting point: 142 to 143 °C
--
molecule: O=C1N(C[C@H]2CCCO2)c2ccccc2C12COc1cc3c(cc12)OCC3 (some centres unmarked)
melting point: 162 to 164 °C
--
molecule: CC(C)c1nc(CN2C(=O)C3(COc4cc5c(cc43)OCCO5)c3ccccc32)cs1 (centres unmarked)
melting point: 60 to 63 °C
--
molecule: O=C1N(Cc2ccc(Br)cn2)c2ccccc2C12COc1cc3c(cc12)OCCO3 (centres unmarked)
melting point: 201 to 202 °C
--
molecule: Cc1onc(-c2c(Cl)cccc2Cl)c1CN1C(=O)C2(COc3cc4c(cc32)OCO4)c2ccccc21 (centres unmarked)
melting point: 190 to 192 °C
--
molecule: O=C1N(C[C@H](O)CO)c2ccccc2C12COc1cc3c(cc12)OCCO3 (some centres unmarked)
melting point: 179 to 181 °C
--
molecule: O=C1CC[C@@H](CN2C(=O)C3(COc4cc5c(cc43)CCO5)c3ccccc32)N1 (some centres unmarked)
melting point: 133 to 136 °C

Data provenance is patent US8263606B2.
